# runDescription: selected physical properties of solvents
# measurementParameters: at bp
Reported Heat of Vaporization values for a set of compounds
Unit kJ/kg implied. Number only.

Observe how each entry below is paired with its result.
ClC(Cl)=C(Cl)Cl | 207
FC(F)(F)/C=C/Cl [1233zd(E), trans-1-chloro-3,3,3-trifluoropropene] | 193.9
FC(F)(Cl)C(F)(Cl)Cl | 144.7
FC(C(F)C(F)(F)C(F)(F)F)C(F)(F)F (centres unmarked) [HFC 43-10mee] | 129.7

State its Heat of Vaporization: CCCBr [n-Propyl Bromide, n-propyl bromide, reference compound]
246

* * *

# runDescription: selected physical properties of solvents
Measured Boiling Point, listed per entry for reference.
# output: bare number, implied unit °C

Solved cases (4 shown):
FC(F)(F)/C=C/Cl [1233zd(E), trans-1-chloro-3,3,3-trifluoropropene] | 19.52
FC(F)(Cl)C(F)(Cl)Cl [CFC-113, 1,1,2-trichlorotrifluoroethane] | 47.6
FC(C(F)C(F)(F)C(F)(F)F)C(F)(F)F (centres unmarked) [HFC 43-10mee] | 54
ClC(Cl)=C(Cl)Cl [Perc, perchloroethylene] | 121.3

Now consider a different compound.
Please report Boiling Point for the following compound: CCCBr [n-Propyl Bromide, n-propyl bromide, reference compound]
71
